tested on: sonic hedgehog pathway; assay: Human hedgehog reporter assay HEPM-GliLuc (HGL); format: cell-based; details: HepM human embryonic palatal mesenchymal cells, Gli-luciferase reporter
Where a name gives a salt, the structure may show the parent alone.
The compounds listed here are annotated with their EC50.
reported-metric: EC50

compound="CN[C@H]1CC[C@@H](N(Cc2cc(-c3ccc(NS(C)(=O)=O)nc3)ccc2OC)C(=O)c2sc3c(F)ccc(F)c3c2Cl)CC1 [Compound R10, dihydrochloride]" assay_result="< 50 nM"
compound="CCOc1ccc(-c2cc(C)nc(C)c2)cc1CN(C(=O)c1sc2ccccc2c1Cl)[C@H]1CC[C@H](NC)CC1 [Compound 400, dihydrochloride]" assay_result="250 to 1000 nM"
compound="CN[C@H]1CC[C@@H](N(Cc2cc(-c3cc(C)nc(C)c3)ccc2OC)C(=O)c2sc3c(F)ccc(F)c3c2Cl)CC1 [Compound 350, dihydrochloride]" assay_result="50 to 250 nM"
compound="CN[C@H]1CC[C@@H](N(Cc2cc(-c3cccnc3)ccc2OC)C(=O)c2sc3cccc(F)c3c2Cl)CC1 [360 (R16), dihydrochloride]" assay_result="< 50 nM"
compound="CN[C@H]1CC[C@@H](N(Cc2cc(-c3ccc(CO)cc3)ccc2OC)C(=O)c2sc3c(F)ccc(F)c3c2Cl)CC1 [Compound 338, trifluoroacetate]" assay_result="< 50 nM"
compound="CN[C@H]1CC[C@@H](N(Cc2cc(-c3cccnc3)ccc2OC)C(=O)c2sc3c(F)ccc(F)c3c2Cl)CC1 [Compound 361, dihydrochloride]" assay_result="< 50 nM"
compound="CN[C@H]1CC[C@@H](N(Cc2cc(-c3cccc(C#N)c3)ccc2OC)C(=O)c2sc3ccccc3c2Cl)CC1 [Compound 304, hydrochloride]" assay_result="< 50 nM"
compound="CCOc1ccc(-c2ccc(C(=O)C(F)(F)F)cc2)cc1CN(C(=O)c1sc2ccccc2c1Cl)[C@H]1CC[C@@H](NC)CC1 [Compound 310, hydrochloride]" assay_result="< 50 nM"
compound="CNC(=O)c1cc(-c2ccc(OC)c(CN(C(=O)c3sc4c(F)ccc(F)c4c3Cl)[C@H]3CC[C@H](NC)CC3)c2)ccn1 [356 (R21), dihydrochloride]" assay_result="< 50 nM"
compound="CN[C@H]1CC[C@@H](N(Cc2cc(-c3ccc(C(C)=O)cc3)ccc2OC)C(=O)c2sc3ccccc3c2Cl)CC1 [Compound 303, hydrochloride]" assay_result="< 50 nM"
compound="CN[C@H]1CC[C@@H](N(Cc2cc(-c3ccc(N(C)C=O)cc3)ccc2OC)C(=O)c2sc3cccc(F)c3c2Cl)CC1 [Compound 347, trifluoroacetate]" assay_result="< 50 nM"
compound="CN[C@H]1CC[C@@H](N(Cc2cc(-c3ccnc(C)c3)ccc2OC)C(=O)c2sc3cccc(F)c3c2Cl)CC1 [Compound 348, bis(trifluoroacetate)]" assay_result="< 50 nM"
compound="CN[C@H]1CC[C@H](N(Cc2cc(-c3ccc(N(C)C)nc3)ccc2OC)C(=O)c2sc3ccccc3c2Cl)CC1 [Compound 405, bis(trifluoroacetate)]" assay_result="250 to 1000 nM"
compound="CN[C@H]1CC[C@@H](N(Cc2cc(-c3ccc(N(C)C(C)=O)cc3)ccc2OC)C(=O)c2sc3c(F)ccc(F)c3c2Cl)CC1 [Compound 336, hydrochloride]" assay_result="< 50 nM"
compound="CN[C@H]1CC[C@@H](N(Cc2cc(-c3cnccn3)ccc2OC)C(=O)c2sc3ccccc3c2Cl)CC1 [330 (R22)]" assay_result="50 to 250 nM"
compound="CCOc1ccc(-c2ccc(C(=O)C(F)(F)F)cc2)cc1CN(C(=O)c1sc2c(F)ccc(F)c2c1Cl)[C@H]1CC[C@@H](NC)CC1 [Compound 341, trifluoroacetate]" assay_result="50 to 250 nM"
compound="CN[C@H]1CC[C@@H](N(Cc2cc(-c3ccc(C(=O)C(F)(F)F)cc3)ccc2OC)C(=O)c2sc3c(F)ccc(F)c3c2Cl)CC1 [Compound 349, trifluoroacetate]" assay_result="< 50 nM"
compound="CN[C@H]1CC[C@@H](N(Cc2cc(-c3ccccc3)ccc2OC)C(=O)c2sc3ccccc3c2Cl)CC1 [Compound R3, hydrochloride]" assay_result="50 to 250 nM"
compound="CN[C@H]1CC[C@@H](N(Cc2cc(-c3cccc(C(C)=O)c3)ccc2OC)C(=O)c2sc3c(F)ccc(F)c3c2Cl)CC1 [Compound 364, hydrochloride]" assay_result="< 50 nM"
compound="CCOc1ccc(-c2ccc(C#N)cc2)cc1CN(C(=O)c1sc2ccccc2c1Cl)[C@H]1CC[C@@H](NC)CC1 [Compound R2, hydrochloride]" assay_result="50 to 250 nM"
compound="CN[C@H]1CC[C@@H](N(Cc2cc(-c3ccnc(C(=O)O)c3)ccc2OC)C(=O)c2sc3c(F)ccc(F)c3c2Cl)CC1 [Compound R6, bis(trifluoroacetate)]" assay_result="50 to 250 nM"
compound="CN[C@H]1CC[C@@H](N(Cc2cc(-c3ccc(C(N)=O)cc3)ccc2OC)C(=O)c2sc3ccccc3c2Cl)CC1 [Compound 316, hydrochloride]" assay_result="< 50 nM"
compound="CN[C@H]1CC[C@@H](N(Cc2cc(-c3ccc(N)nc3)ccc2OC)C(=O)c2sc3ccccc3c2Cl)CC1 [Compound 319, dihydrochloride]" assay_result="< 50 nM"

---

system: sonic hedgehog pathway; experiment: Human hedgehog reporter assay HEPM-GliLuc (HGL); format: cell-based; conditions: HepM human embryonic palatal mesenchymal cells, Gli-luciferase reporter
Structures can show the parent of a compound that is named as a salt.
The compounds listed here are annotated with their EC50.
reported-metric: EC50

compound="CN[C@H]1CC[C@@H](N(Cc2cc(-c3cccc(C#N)c3)ccc2OC)C(=O)c2sc3c(F)ccc(F)c3c2Cl)CC1 [Compound 337, hydrochloride]" assay_result="< 50 nM"
compound="CCOc1ccc(-c2cccc(C#N)c2)cc1CN(C(=O)c1sc2ccccc2c1Cl)[C@H]1CC[C@@H](NC)CC1 [Compound 328, hydrochloride]" assay_result="50 to 250 nM"
compound="CN[C@H]1CC[C@@H](N(Cc2cc(-c3ccc(C)nc3)ccc2OC)C(=O)c2sc3ccccc3c2Cl)CC1 [Compound 320, dihydrochloride]" assay_result="< 50 nM"
compound="CN[C@H]1CC[C@@H](N(Cc2cc(-c3ccc(C(N)=O)cc3)ccc2OC)C(=O)c2sc3c(F)ccc(F)c3c2Cl)CC1 [Compound R8, hydrochloride]" assay_result="< 50 nM"
compound="CN[C@H]1CC[C@@H](N(Cc2cc(-c3ccc(C(C)=O)cc3)ccc2OC)C(=O)c2sc3c(F)ccc(F)c3c2Cl)CC1 [Compound 332, hydrochloride]" assay_result="< 50 nM"
compound="CNC1CCC(N(Cc2cc(-c3ccc(N)nc3C)ccc2OC)C(=O)c2sc3ccccc3c2Cl)CC1 (stereo not shown) [Compound 398, dihydrochloride]" assay_result="1000 to 2500 nM"
compound="CN[C@H]1CC[C@@H](N(Cc2cc(-c3ccc(N(C)C(C)=O)cc3)ccc2OC)C(=O)c2sc3ccccc3c2Cl)CC1 [Compound 318, hydrochloride]" assay_result="< 50 nM"

---

The compounds listed here are annotated with their EC50.
test system: sonic hedgehog pathway; assay: Human hedgehog reporter assay Daoy-GliLuc (DGL); type: cell-based; conditions: Daoy human medulloblastoma cells, Gli-luciferase reporter; read-out: Daoy Avg. EC50
Where a name gives a salt, the structure may show the parent alone.
reported-metric: EC50

compound="CN[C@H]1CC[C@H](N(Cc2cc(-c3ccc(C#N)cc3)ccc2F)C(=O)c2sc3ccccc3c2Cl)CC1 [Compound 423, trifluoroacetate]" assay_result="250 to 1000 nM"
compound="CCOc1ccc(-c2cccc(C#N)c2)cc1CN(C(=O)c1sc2ccccc2c1Cl)[C@H]1CC[C@@H](NC)CC1 [Compound 328, hydrochloride]" assay_result="< 50 nM"
compound="CN[C@H]1CC[C@@H](N(Cc2cc(-c3ccc(C(=O)C(F)(F)F)cc3)ccc2OC)C(=O)c2sc3ccccc3c2Cl)CC1 [Compound 302, trifluoroacetate]" assay_result="< 50 nM"
